Origin of measurements: the NIST ThermoML archive (doi:10.1021/je900407u)

Measurement Notes: isobaric coefficient of expansion
Condition Summary: 318.15 K; 10000 kPa; Liquid; Micro DSCII
Listing of recorded isobaric coefficient of expansion by entry.

Below: 3 compounds and their reported isobaric coefficient of expansion.
CCCCn1cc[n+](C)c1.F[B-](F)(F)F [1-butyl-3-methylimidazolium tetrafluoroborate] ... 0.000577 1/K
CCCCn1cc[n+](C)c1.O=S(=O)([O-])C(F)(F)F [1-butyl-3-methylimidazolium trifluoromethanesulfonate] ... 0.000595 1/K
CCCCn1cc[n+](C)c1.[F][Sb-]([F])([F])([F])([F])[F] [1-butyl-3-methylimidazolium hexafluoroantimonate] ... 0.000609 1/K

INPUT: # isobaric coefficient of expansion lookup, item CCCCn1cc[n+](C)c1.COS(=O)(=O)[O-] [1-butyl-3-methylimidazolium methyl sulfate]
OUTPUT: 0.000534 1/K

INPUT: Also, `CCCC[n+]1ccn(C)c1.O=S(=O)([N-]S(=O)(=O)C(F)(F)F)C(F)(F)F` please.
OUTPUT: 0.000646 1/K
